Test system: Lamium purpureum
Experiment: Postemergence herbicidal activity in cereal crops
Type: in vivo
Conditions: Lamium purpureum, post-emergence, 480 h; post-emergent, 17.5 g ai/ha, after 20-22 days; read-out: % Control LAMPU
readout: pest or weed control at 17.5 g/ha (%)
All answers are understood in %, so give the number only.

For the compound shown here, COc1c(Cl)cc(F)c(-c2cc(N)c(Cl)c(C(=O)O)n2)c1F , give the reported pest or weed control at 17.5 g/ha.
99

For the compound shown here, COC(=O)c1nc(-c2c(F)cc(Cl)c(OC)c2F)cc(N)c1Cl , give the reported pest or weed control at 17.5 g/ha.
100

For the compound shown here, COC(=O)c1nc(-c2ccc(Cl)c(N(C)C)c2F)cc(N)c1Cl , give the reported pest or weed control at 17.5 g/ha.
100

For the compound shown here, CCCCOCCOC(=O)c1nc(-c2ccc(Cl)c(OC)c2F)cc(N)c1Cl , give the reported pest or weed control at 17.5 g/ha.
100

For the compound shown here, CCN(CC)c1c(Cl)ccc(-c2cc(N)c(Cl)c(C(=O)OC)n2)c1F , give the reported pest or weed control at 17.5 g/ha.
100

For the compound shown here, COC(=O)c1nc(-c2ccc(C(F)F)c(OC)c2F)cc(N)c1Cl , give the reported pest or weed control at 17.5 g/ha.
95

For the compound shown here, COC(=O)c1nc(-c2ccc(Cl)c(C(C)F)c2F)cc(N)c1Cl (centres unmarked) , give the reported pest or weed control at 17.5 g/ha.
99

For the compound shown here, COc1c(Br)ccc(-c2cc(N)c(Cl)c(C(=O)O)n2)c1F , give the reported pest or weed control at 17.5 g/ha.
95

For the compound shown here, COC(=O)c1nc(-c2c(F)cc(Br)c(OC)c2F)cc(N)c1Cl , give the reported pest or weed control at 17.5 g/ha.
100

For the compound shown here, CCCCOC(=O)c1nc(-c2ccc(Cl)c(C(C)F)c2F)cc(N)c1Cl (centres unmarked) , give the reported pest or weed control at 17.5 g/ha.
100

For the compound shown here, CNc1c(Cl)ccc(-c2cc(N)c(Cl)c(C(=O)OC)n2)c1F , give the reported pest or weed control at 17.5 g/ha.
95

For the compound shown here, COC(=O)c1nc(-c2ccc(Cl)c(OC)c2F)cc(N)c1Cl , give the reported pest or weed control at 17.5 g/ha.
100

For the compound shown here, COc1c(Cl)ccc(-c2cc(N)c(Cl)c(C(=O)O)n2)c1F , give the reported pest or weed control at 17.5 g/ha.
100

For the compound shown here, COC(=O)c1nc(-c2ccc(F)c(OC)c2F)cc(N)c1Cl , give the reported pest or weed control at 17.5 g/ha.
100

For the compound shown here, COC(=O)c1nc(-c2ccc(C(F)(F)F)c(OC)c2F)cc(N)c1Cl , give the reported pest or weed control at 17.5 g/ha.
100

For the compound shown here, COC(=O)c1nc(-c2ccc(Br)c(OC)c2F)cc(N)c1Cl , give the reported pest or weed control at 17.5 g/ha.
100

For the compound shown here, CCCCOC(=O)c1nc(-c2ccc(Br)c(OC)c2F)cc(N)c1Cl , give the reported pest or weed control at 17.5 g/ha.
100
